pEC50: −log10 of the molar value.
Assay read-out pEC50; system under study: Peroxisome proliferator-activated receptor alpha (Homo sapiens, UniProt Q07869).
Sequence (Q07869 whole entry): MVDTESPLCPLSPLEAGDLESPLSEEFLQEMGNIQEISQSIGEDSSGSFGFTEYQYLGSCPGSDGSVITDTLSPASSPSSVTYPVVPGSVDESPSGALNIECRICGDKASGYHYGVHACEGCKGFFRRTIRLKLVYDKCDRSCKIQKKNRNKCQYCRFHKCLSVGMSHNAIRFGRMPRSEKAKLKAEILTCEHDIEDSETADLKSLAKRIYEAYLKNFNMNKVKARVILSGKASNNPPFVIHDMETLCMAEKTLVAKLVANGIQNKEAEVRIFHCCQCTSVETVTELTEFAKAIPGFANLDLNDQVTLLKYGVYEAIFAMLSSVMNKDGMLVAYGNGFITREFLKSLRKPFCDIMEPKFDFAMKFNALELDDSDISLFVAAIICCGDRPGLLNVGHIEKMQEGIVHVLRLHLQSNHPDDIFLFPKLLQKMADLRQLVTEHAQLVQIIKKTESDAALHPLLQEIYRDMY
measurement-kind: pEC50

{"molecule-smiles": "CC(C)(Sc1ccc(CCN(CCCCC2CCCCC2)C(=O)Nc2cc(Cl)cc(Cl)c2)cc1)C(=O)O", "system-tested": "Peroxisome proliferator-activated receptor alpha (Homo sapiens, UniProt Q07869)", "result-number": 9.00}
{"molecule-smiles": "CC(C)(Sc1ccc(CCN(CCc2ccc(-c3ccccc3)cc2)C(=O)NC2CCCCC2)cc1)C(=O)O", "system-tested": "Peroxisome proliferator-activated receptor alpha (Homo sapiens, UniProt Q07869)", "result-number": 8.10}
{"molecule-smiles": "COc1ccccc1NC(=O)N(CCCCC1CCCCC1)CCc1ccc(SC(C)(C)C(=O)O)cc1", "system-tested": "Peroxisome proliferator-activated receptor alpha (Homo sapiens, UniProt Q07869)", "result-number": 8.30}
{"molecule-smiles": "COc1ccc(C)cc1NC(=O)N(CCc1ccc(SC(C)(C)C(=O)O)cc1)CCc1ccc(-c2ccccc2)cc1", "system-tested": "Peroxisome proliferator-activated receptor alpha (Homo sapiens, UniProt Q07869)", "result-number": 7.00}
{"molecule-smiles": "Cc1cc(C)c(NC(=O)N(CCc2ccc(SC(C)(C)C(=O)O)cc2)CCc2ccc(-c3ccccc3)cc2)cc1C", "system-tested": "Peroxisome proliferator-activated receptor alpha (Homo sapiens, UniProt Q07869)", "result-number": 8.05}

* * *

In what follows, each item is paired with its EC50 for Peroxisome proliferator-activated receptor alpha (Homo sapiens).
measurement-kind: EC50 (nM)

{"molecule-smiles": "Cc1ccc(NC(=O)N(CCCCC2CCCCC2)CCc2ccc(SC(C)(C)C(=O)O)cc2)cc1[N+](=O)[O-]", "display-unit": "nM", "result-number": 20}
{"molecule-smiles": "CC(C)(Sc1ccc(CCN(CCc2ccc(-c3ccccc3)cc2)C(=O)Nc2cc(Cl)cc(Cl)c2)cc1)C(=O)O", "display-unit": "nM", "result-number": 50}
{"molecule-smiles": "COc1ccc(NC(=O)N(CCc2ccc(SC(C)(C)C(=O)O)cc2)CCc2ccc(-c3ccccc3)cc2)c(OC)c1", "display-unit": "nM", "result-number": 6}
{"molecule-smiles": "CC(C)(Sc1ccc(CCN(CCCCC2CCCCC2)C(=O)Nc2cccc(C#N)c2)cc1)C(=O)O", "display-unit": "nM", "result-number": 9}

* * *

- system-tested: Peroxisome proliferator-activated receptor gamma (Homo sapiens)
- Sequence (P37231 whole entry): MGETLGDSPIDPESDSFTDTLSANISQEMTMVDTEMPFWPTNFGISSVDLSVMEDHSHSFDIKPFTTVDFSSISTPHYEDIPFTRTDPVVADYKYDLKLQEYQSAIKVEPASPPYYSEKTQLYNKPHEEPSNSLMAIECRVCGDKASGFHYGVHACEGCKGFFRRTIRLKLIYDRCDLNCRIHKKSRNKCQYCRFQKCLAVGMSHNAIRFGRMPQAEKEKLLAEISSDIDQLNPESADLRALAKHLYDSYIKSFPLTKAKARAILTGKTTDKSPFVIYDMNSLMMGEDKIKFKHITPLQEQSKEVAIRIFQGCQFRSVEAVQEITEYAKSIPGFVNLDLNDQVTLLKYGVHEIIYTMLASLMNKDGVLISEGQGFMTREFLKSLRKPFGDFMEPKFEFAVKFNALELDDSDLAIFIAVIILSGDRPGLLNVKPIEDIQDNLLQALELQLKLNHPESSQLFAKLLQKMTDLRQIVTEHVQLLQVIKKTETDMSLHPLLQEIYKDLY
- assay-name: In vitro transcriptional activation in CV-1 cells expressing human Gal4-PPAR gamma ligand binding domain

{"molecule-smiles": "CC(C)(Sc1ccc(CCN(CCc2ccc(-c3ccccc3)cc2)C(=O)NC2CCCCC2)cc1)C(=O)O", "system-tested": "Peroxisome proliferator-activated receptor gamma (Homo sapiens)", "EC50 / nM": 2400}
{"molecule-smiles": "Cc1cc(C)c(NC(=O)N(CCc2ccc(SC(C)(C)C(=O)O)cc2)CCc2ccc(-c3ccccc3)cc2)cc1C", "system-tested": "Peroxisome proliferator-activated receptor gamma (Homo sapiens)", "EC50 / nM": 1350}
{"molecule-smiles": "COc1ccc(NC(=O)N(CCc2ccc(SC(C)(C)C(=O)O)cc2)CCc2ccc(-c3ccccc3)cc2)c(OC)c1", "system-tested": "Peroxisome proliferator-activated receptor gamma (Homo sapiens)", "EC50 / nM": 1200}
{"molecule-smiles": "COc1ccc(C)cc1NC(=O)N(CCc1ccc(SC(C)(C)C(=O)O)cc1)CCc1ccc(-c2ccccc2)cc1", "system-tested": "Peroxisome proliferator-activated receptor gamma (Homo sapiens)", "EC50 / nM": 10000}
{"molecule-smiles": "CC(C)(Sc1ccc(CCN(CCCCC2CCCCC2)C(=O)Nc2cccc(C#N)c2)cc1)C(=O)O", "system-tested": "Peroxisome proliferator-activated receptor gamma (Homo sapiens)", "EC50 / nM": 1000}
{"molecule-smiles": "CC(C)(Sc1ccc(CCN(CCCCC2CCCCC2)C(=O)Nc2cc(Cl)cc(Cl)c2)cc1)C(=O)O", "system-tested": "Peroxisome proliferator-activated receptor gamma (Homo sapiens)", "EC50 / nM": 1000}
{"molecule-smiles": "CC(C)(Sc1ccc(CCN(CCc2ccc(-c3ccccc3)cc2)C(=O)Nc2cc(Cl)cc(Cl)c2)cc1)C(=O)O", "system-tested": "Peroxisome proliferator-activated receptor gamma (Homo sapiens)", "EC50 / nM": 2000}
{"molecule-smiles": "COc1ccccc1NC(=O)N(CCCCC1CCCCC1)CCc1ccc(SC(C)(C)C(=O)O)cc1", "system-tested": "Peroxisome proliferator-activated receptor gamma (Homo sapiens)", "EC50 / nM": 320}
{"molecule-smiles": "Cc1ccc(NC(=O)N(CCCCC2CCCCC2)CCc2ccc(SC(C)(C)C(=O)O)cc2)cc1[N+](=O)[O-]", "system-tested": "Peroxisome proliferator-activated receptor gamma (Homo sapiens)", "EC50 / nM": 2000}

* * *

- system-tested: Peroxisome proliferator-activated receptor delta (Homo sapiens, UniProt Q03181)
- Sequence (Q03181 whole entry): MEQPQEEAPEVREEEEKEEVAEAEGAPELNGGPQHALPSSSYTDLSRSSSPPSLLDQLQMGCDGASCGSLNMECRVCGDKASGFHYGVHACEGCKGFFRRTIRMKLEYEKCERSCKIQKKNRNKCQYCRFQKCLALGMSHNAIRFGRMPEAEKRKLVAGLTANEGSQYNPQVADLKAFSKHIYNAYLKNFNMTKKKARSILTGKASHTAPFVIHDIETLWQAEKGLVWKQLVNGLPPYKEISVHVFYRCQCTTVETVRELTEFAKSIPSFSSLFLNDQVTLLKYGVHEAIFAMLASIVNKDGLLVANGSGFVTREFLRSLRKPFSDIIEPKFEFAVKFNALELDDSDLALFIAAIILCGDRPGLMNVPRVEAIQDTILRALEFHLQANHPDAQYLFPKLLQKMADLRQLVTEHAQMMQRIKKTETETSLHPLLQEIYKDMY
- assay-name: In vitro transcriptional activation in CV-1 cells expressing human Gal4-PPAR delta ligand binding domain

{"molecule-smiles": "Cc1cc(C)c(NC(=O)N(CCc2ccc(SC(C)(C)C(=O)O)cc2)CCc2ccc(-c3ccccc3)cc2)cc1C", "EC50": "> 10 µM"}
{"molecule-smiles": "CC(C)(Sc1ccc(CCN(CCc2ccc(-c3ccccc3)cc2)C(=O)Nc2cc(Cl)cc(Cl)c2)cc1)C(=O)O", "EC50": "> 10 µM"}
{"molecule-smiles": "CC(C)(Sc1ccc(CCN(CCCCC2CCCCC2)C(=O)Nc2cccc(C#N)c2)cc1)C(=O)O", "EC50": "> 10 µM"}
{"molecule-smiles": "CC(C)(Sc1ccc(CCN(CCc2ccc(-c3ccccc3)cc2)C(=O)NC2CCCCC2)cc1)C(=O)O", "EC50": "5 µM"}
{"molecule-smiles": "CC(C)(Sc1ccc(CCN(CCCCC2CCCCC2)C(=O)Nc2cc(Cl)cc(Cl)c2)cc1)C(=O)O", "EC50": "> 10 µM"}
{"molecule-smiles": "Cc1ccc(NC(=O)N(CCCCC2CCCCC2)CCc2ccc(SC(C)(C)C(=O)O)cc2)cc1[N+](=O)[O-]", "EC50": "> 10 µM"}
{"molecule-smiles": "COc1ccc(C)cc1NC(=O)N(CCc1ccc(SC(C)(C)C(=O)O)cc1)CCc1ccc(-c2ccccc2)cc1", "EC50": "> 10 µM"}
{"molecule-smiles": "COc1ccc(NC(=O)N(CCc2ccc(SC(C)(C)C(=O)O)cc2)CCc2ccc(-c3ccccc3)cc2)c(OC)c1", "EC50": "4 µM"}
{"molecule-smiles": "COc1ccccc1NC(=O)N(CCCCC1CCCCC1)CCc1ccc(SC(C)(C)C(=O)O)cc1", "EC50": "1.1 µM"}
